Tested on: VEGFR2;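 further: KINOMEscan kinase panel screen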
Construct: gene KDR
Settings: concentration: 1 μM, replicates: in singlicate; n = 1
Examples of compounds with documented %Inh follow.

{"columns": ["Compound", "Unit", "%Inh"],
 "data": [
  ["O=c1cc(N2CCOCC2)nc2n(Cc3cccc(Cl)c3Cl)c3ccccc3n12 [GSK2299009]", "%", 7],
  ["CC(=O)c1c(C)c2cnc(Nc3ccn(C)n3)nc2n(C2CCCC2)c1=O", "%", 0],
  ["COc1ccc(Nc2nccc(-c3ccc(NC(=O)c4cc5cc(F)ccc5[nH]4)cc3)n2)cc1 [GSK1229496]", "%", 0],
  ["Cc1ccc(NC(=O)c2ccc(Cl)cc2)cc1-c1ccc(C(=O)Nc2ccncc2)cc1 [GSK1398467]", "%", 0],
  ["Cc1c(Cn2c3ccccc3n3c(=O)cc(N4CCOCC4)nc23)cccc1C(F)(F)F [GSK2306394]", "%", 0],
  ["Cn1cnc2c(N)ncnc21 [SKF-97623]", "%", 100],
  ["Fc1ccc(-c2nc3n(c2-c2ccncc2)CCS3)cc1 [GI98581]", "%", 0],
  ["Fc1ccc(-c2nc[nH]c2-c2ccncc2)cc1 [SB-217360]", "%", 0],
  ["CCc1ccc(-c2ccc3c(c2)-c2n[nH]cc2S(=O)(=O)N3C)cc1", "%", 0]
]}
